- target_or_system: Hexose transporter 1 (Plasmodium falciparum)
- assay_name: ST_JUDE_LEISH: Cytotoxicity at 2uM final concentration against transgenic Leishmania Mexicana promastigotes LmPfHT that are glucose transport deficient and complemented with the Plasmodium falciparum hexose transporter. Activity is measured by DNA content using SYBR green in vitro
- Format: functional
endpoint_label: inhibition (%)
# output: bare number, implied unit %

Here is how some compounds turned out for inhibition.
CCN(CCCN1CCCCC1)c1cc(C)nc(Nc2ccc(Br)cc2F)n1	2.96
CCOc1ccc(C2CCN(CCCCNC(=O)c3ccc(NC(=O)c4ccc(Cl)cc4)cc3)CC2)c(OCC)c1	3.34
CC(C)CCN(Cc1cncn1Cc1cccc(C(F)(F)F)c1)C(=O)c1ccccc1C#N	-0.35
CC[C@H]1CN2CCc3c([nH]c4ccccc34)[C@@H]2C[C@@H]1CC1c2cc(OC)c(OC)cc2CCN1C (stereo not given in full)	10
CC1CN(Cc2cccc(-c3ccc(-c4nc5cc(F)ccc5[nH]4)cc3)c2)CC(C)O1 (stereo not given)	1.73

Look up inhibition with Hexose transporter 1 (Plasmodium falciparum) for this compound: Cc1cc(CNCC(CCNc2cc(=O)c3ccccc3[nH]2)NCc2cc(Br)cc(Br)c2)oc1C (stereo not given) 2.43

// same read-out, input: CC(C)NCc1ccc(-c2ccc(-c3nc4cc(C(F)(F)F)ccc4[nH]3)cc2)cc1 -1.61

// same read-out, input: Fc1ccc(-c2cncc(-c3ccc(F)cc3)n2)cc1 6.64

// same read-out, input: Cc1nc2nc(N)nc(N)c2c(C)c1Cc1ccc([N+](=O)[O-])cc1 3.25

// same read-out, input: O=C(Nc1ccc(OC2CCN(Cc3ccsc3)CC2)c(Cl)c1)c1cccs1 2.38

// same read-out, input: N#Cc1cccc(-c2cnc(N)c(-c3nc4cc(S(N)(=O)=O)ccc4[nH]3)c2)c1 1.38

// same read-out, input: CC(C)CCN1CCC(Oc2ccc(NC(=O)c3cccs3)cc2Cl)CC1 4.49

// same read-out, input: C1=CN(Cc2ccccc2)C=CC1=C1C=Nc2ccccc21 10.4

---

# maps each entry to its inhibition
- target_or_system: Glucose transporter (Leishmania mexicana) (UniProt O61059)
- assay_name: ST_JUDE_LEISH: Cytotoxicity at 2uM final concentration against transgenic Leishmania Mexicana promastigotes LmGT2 that are glucose transport deficient and complemented with the L. Mexicana glucose transporter 2. Activity is measured by DNA content using SYBR green in vitro
- Format: functional
# output: bare number, implied unit %

Here is how some compounds turned out for inhibition.
COc1cc(C(=O)NC2CCN(Cc3ccccc3)CC2)ccc1-c1nc2cc(Cl)c(C)cc2[nH]1	5.5
OCCN1CCN(Cc2ccc(-c3cccc(-c4nc5ccccc5[nH]4)c3)cc2)CC1	-1.5
Cc1nc2nc(N)nc(N)c2c(C)c1Cc1cccc(C(N)=O)c1	-1.43
Cc1cc(N(CCO)CCCN2CCCCC2)nc(Nc2ccc(Cl)cc2)n1	2.41
CCN(CC)CC#Cc1ccc2[nH]c(C)c(Cl)c(=O)c2c1	4.12

Could you now look at the following compound, please?
What does the record list as inhibition for CCC(C)NCC(O)(c1ccc(Cl)cc1)c1ccc(Cl)cc1 (stereo unspecified) ? -0.2

---

- target_or_system: Glucose transporter (Leishmania mexicana)
- assay_name: ST_JUDE_LEISH: Cytotoxicity at 2uM final concentration against transgenic Leishmania Mexicana promastigotes LmGT2 that are glucose transport deficient and complemented with the L. Mexicana glucose transporter 2. Activity is measured by DNA content using SYBR green in vitro
- Format: functional
endpoint_label: inhibition
Put your answer as a value accompanied by its unit after it.

Here is how some molecules turned out for inhibition.
Nc1n[nH]c(-c2ccccc2Nc2ccnc3cc(-c4nccs4)ccc23)n1	-0.15%
C=CCOc1ccccc1CNCC(O)c1cc(Br)cs1 (centres undefined)	2.43%
CC(=O)Nc1ccc2[nH]cc(C3CCN(CC4CCN(C(=O)/C=C/c5ccc(Cl)c(Cl)c5)CC4)CC3)c2n1	-1.1%
CCN1CCN(c2ccc(NC(=O)c3cc4c(C)nn(-c5ccccc5)c4s3)cc2C)CC1	-1.39%
COc1cc(O)c2c(=O)c(OC)c(-c3cccc(Cl)c3OC3O[C@H](CO)[C@@H](O)[C@H](O)[C@H]3O)oc2c1OC (some centres undefined)	4.54%

What does the record list as inhibition for CC(=O)Nc1cccc(C(=O)Nc2cccc(-c3ccc(-c4nc5cc(F)ccc5[nH]4)cc3)c2)c1 ? 1.46%

// same read-out, input: Cc1nc2nc(N)nc(N)c2c(C)c1Cc1cccc(C(F)(F)F)c1 -2.32%
